Listed here: items and their measured fold change of affinity.
Target: T1, Human CD137 ECD (human)
T1 construct: entry includes C-terminal His-tag and biotin acceptor peptide; also called human CD137 extracellular domain; 4-1BB
T1 sequence (chain, as listed by the source limits assumed): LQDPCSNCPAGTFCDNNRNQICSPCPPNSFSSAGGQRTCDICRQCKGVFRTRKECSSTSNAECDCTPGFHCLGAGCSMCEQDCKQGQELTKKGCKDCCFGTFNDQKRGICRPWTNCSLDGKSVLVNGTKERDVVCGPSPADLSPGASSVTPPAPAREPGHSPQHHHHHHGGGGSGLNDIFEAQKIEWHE
Assay: Biacore SPR, vs parent H183/L072

binder: H183/L072 VL R54T (antibody, name in Kabat numbering, V domains shown, Dual-Ig) VH: QVQLVESGGGLVQPGRSLRLSCAASGFTFSNAWMHWVRQAPGKGLEWVAQIKDKGNAYAAYYAPSVKGRFTISRDDSKNSIYLQMNSLKTEDTAVYYCHYVHYASASTVLPAFGVDAWGQGTTVTVSS VL: DIVMTQSPLSLPVTPGEPASISCQASQELVHMNRNTYLHWYQQKPGQAPRLLIYKVSNTFPGVPDRFSGSGSGTDFTLKISRVEAEDVGVYYCAQGTSVPFTFGQGTKLEIK
fold change of affinity / fold: 2.5

binder: H183/L072 VL Q24N (antibody, name in Kabat numbering, V domains shown, Dual-Ig) VH: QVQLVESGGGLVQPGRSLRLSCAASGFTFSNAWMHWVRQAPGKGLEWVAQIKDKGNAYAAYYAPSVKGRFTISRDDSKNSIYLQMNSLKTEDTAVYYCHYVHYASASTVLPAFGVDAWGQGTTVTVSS VL: DIVMTQSPLSLPVTPGEPASISCNASQELVHMNRNTYLHWYQQKPGQAPRLLIYKVSNRFPGVPDRFSGSGSGTDFTLKISRVEAEDVGVYYCAQGTSVPFTFGQGTKLEIK
fold change of affinity / fold: 0.9

binder: H183/L072 VL V94N (antibody, name in Kabat numbering, V domains shown, Dual-Ig) VH: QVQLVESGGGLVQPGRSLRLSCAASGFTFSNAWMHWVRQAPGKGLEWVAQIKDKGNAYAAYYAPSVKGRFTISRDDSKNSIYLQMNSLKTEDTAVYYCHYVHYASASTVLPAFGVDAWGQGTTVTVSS VL: DIVMTQSPLSLPVTPGEPASISCQASQELVHMNRNTYLHWYQQKPGQAPRLLIYKVSNRFPGVPDRFSGSGSGTDFTLKISRVEAEDVGVYYCAQGTSNPFTFGQGTKLEIK
fold change of affinity / fold: 0.2
